Known protein stability index of a selection of sequences
Assay: protein stability index of a GFP-peptide fusion (GPS, HEK-293T) (PSI 1-6); higher = more stable;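 further: 24-mer peptide tiles fused after GFP, lentivirally expressed, FACS-sorted into six equal bins by GFP/DsRed ratio, decoded by Illumina sequencing, PSI is the read-weighted mean bin number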
Conditions: treatment: MLN4924 1 uM, 8 h; c terminus: a fixed tail appended
No unit in the answer, please; the number alone is enough.

Name the recorded protein stability index of the sequence listed here: FSLKQEETLDYGKNYNYGMHYCAV [NEUROD6]
2.07

###

Experiment: protein stability index of a GFP-peptide fusion (GPS, HEK-293T) (PSI 1-6); higher = more stable
Conditions: treatment: MLN4924 1 uM, 8 h; c terminus: a fixed tail appended
Tick Y if protein stability index is 4 or greater. Tick N if protein stability index is less than 4.

Reference set, count: 8
{"columns": ["sequenceContent", "qualitativeLabel"],
 "data": [
  ["EQNQEGDAAYRKALDLAREFLPQG [AUH]", "Y"],
  ["RNERSIQEKLQVLMAEGLLPAVKV [SMG5]", "N"],
  ["MKNLLFSEMWDIFLVRLLMAMAVM [MFSD9]", "N"],
  ["KRIEAEEAIKGLNGQKPLGAAEPI [ELAVL3]", "Y"],
  ["DIVDEDVKLMMSTLPKSLSLPTTA [MYBL2]", "N"],
  ["AVEWARNIPFFPDLQITDQVALLR [NR2F2]", "N"],
  ["SYFDMLYPEDSSWAAKAPGASSRE [SPDEF]", "N"],
  ["IKALFRKGKVLAQQGEYSEAIPIL [FKBP8]", "N"]
]}

# check: protein stability index of GRSNAPITAPTEVEVMDETNCQKV [CSNK1G3] is greater than or equal to 4
Y

Does the reported protein stability index for AVGYSSDSETLDLEEAEGAVGYQP [NFE2L1] fall at or above the 4 mark?
Y

###

Experiment: protein stability index of a GFP-peptide fusion (GPS, HEK-293T) (PSI 1-6); higher = more stable
Details: treatment: DMSO; c terminus: a fixed tail appended
Response key: 1 means protein stability index >= 3; -1 means protein stability index < 3.

Solved entries:
{"columns": ["sequenceContent", "qualitativeLabel"],
 "data": [
  ["VLLGEPLVVMAPSPSESSETVLAL [DENND6A]", -1],
  ["ANCIVHRDLKPENILVTSGGTVKL [CDK4]", 1],
  ["DNSLINQIENLNIQVEDIRIRAIL [LOXL2]", -1],
  ["NNEEQRSGLIYLTNHIAPHARNGL [IKZF1]", 1],
  ["ASEFLEQSMSQTRELLLDGGYLQR [RSPH3]", 1],
  ["KKNSSPPLSLYGQLLWREFFYTAA [CRY1]", -1],
  ["KMTPVKNYQAHQSRVTMILFVLEL [WDFY2]", 1],
  ["VTLKYEIKKLIYVHLVIWLLLVAK [JAGN1]", -1],
  ["ALDEAAAALTRMRAESTANAGQSD [ANKRD17]", 1],
  ["AKDLPCDSKPESALGAPSKSPSSP [TBX5]", 1]
]}

Textbook exercise: given the entry FWSVMFFLMLINLGLGSMIGTMAG [SLC6A17] , state whether its protein stability index is greater than or equal to 3.
1

Is protein stability index for QLLLHNTVIFYGADSEQADIARML [ZMYND11] at or above 3?
-1

Please indicate if the recorded protein stability index for TALGGQCVDRQEVAEITKQLPPVV [TCAP] meets or exceeds 3.
1

I'd appreciate it if you could say whether VELYRIKFKESFAEMNRGSNEWKT [COX4I1] has protein stability index at least equal to 3.
-1

For this sequence, is measured protein stability index 3 or higher? SNLCCFIPGKVIDEIYRVLRYVNS [FBXO28]
-1
